# assay.info: Metabolic stability in rat liver microsomes
# Type: in vitro ADME
# condition.details: female, rat, microsomes, pH 7.4, Predicted CL int, iv vivo
endpoint: CLint scaled at 1 µM (mL/min/kg)
All answers are understood in mL/min/kg, so give the number only.

Entry `C[C@H](Nc1ncnc(N)c1C#N)c1cc2ncc(Cl)n2nc1-c1ccccc1` : reported CLint scaled at 1 µM = ?
13.3

----------
# assay.info: Caco-2 bidirectional transport permeability
# Format: in vitro ADME, human
# condition.details: human
endpoint: Papp B→A at 60 min, 10 µM (×10⁻⁶ cm/s)
// note: answer is a bare numeric in ×10⁻⁶ cm/s

Looking for the measured Papp B→A at 60 min, 10 µM of COCCc1ccc(OCC(O)CNC(C)C)cc1 (stereo not shown) [Metoprolol, reference compound] , can you help?
36.8

----------
# measurement.target: BCRP (Homo sapiens, UniProt Q9UNQ0)
# Sequence (Q9UNQ0 whole entry): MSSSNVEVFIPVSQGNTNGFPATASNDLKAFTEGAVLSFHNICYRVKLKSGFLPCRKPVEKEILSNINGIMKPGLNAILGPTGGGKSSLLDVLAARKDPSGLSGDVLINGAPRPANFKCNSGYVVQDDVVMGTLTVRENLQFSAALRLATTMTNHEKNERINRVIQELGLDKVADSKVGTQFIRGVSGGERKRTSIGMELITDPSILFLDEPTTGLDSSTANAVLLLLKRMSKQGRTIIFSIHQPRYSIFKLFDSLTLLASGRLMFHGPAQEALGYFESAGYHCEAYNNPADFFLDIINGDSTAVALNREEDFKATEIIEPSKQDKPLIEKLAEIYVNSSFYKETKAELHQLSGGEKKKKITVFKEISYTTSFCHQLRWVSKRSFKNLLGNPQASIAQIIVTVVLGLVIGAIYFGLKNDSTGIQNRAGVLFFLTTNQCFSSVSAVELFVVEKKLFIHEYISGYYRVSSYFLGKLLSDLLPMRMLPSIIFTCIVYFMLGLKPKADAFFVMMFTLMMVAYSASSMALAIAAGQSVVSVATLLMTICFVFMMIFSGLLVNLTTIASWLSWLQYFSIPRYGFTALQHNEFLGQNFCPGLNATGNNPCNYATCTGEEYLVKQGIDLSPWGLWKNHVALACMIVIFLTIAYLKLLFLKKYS
# assay.info: in vitro
# condition.details: human
endpoint: inhibition at 60 min, 80 µM

Look up inhibition at 60 min, 80 µM for this compound: C[C@H](Nc1ncnc(N)c1C#N)c1cc2ncc(Cl)n2nc1-c1ccccc1 [Amdizalisib]
52%

----------
# assay.info: Single-dose PK in SD rats (IV/PO)
# Design: species or system SD rat
# condition.details: both sexes, SD, rat, in vivo, po, 5 mg/kg
# Source text: For the single-dose PK study, twenty-four rats were divided into four groups, with six rats (male: female = 1:1) in each group.
endpoint: Cmax (ng/mL)
Give the quantity in ng/mL, number only.

Name the reported Cmax value associated with the molecule `C[C@H](Nc1ncnc(N)c1C#N)c1cc2ncc(Cl)n2nc1-c1ccccc1`
622

----------
# assay.info: Single-dose PK and food effect in beagle dogs (IV/PO)
# Parameters: species or system beagle dog
# condition.details: both sexes, beagle, dog, in vivo, po, 0.5 mg/kg, AUC0-inf
endpoint: AUC(0-inf)
Number first, unit second: that is the form wanted.

Which AUC(0-inf) value belongs to C[C@H](Nc1ncnc(N)c1C#N)c1cc2ncc(Cl)n2nc1-c1ccccc1 [Amdizalisib] ?
359 ng·h/mL

----------
# measurement.target: OAT1 (Homo sapiens, UniProt Q4U2R8)
# Sequence (Q4U2R8 whole entry): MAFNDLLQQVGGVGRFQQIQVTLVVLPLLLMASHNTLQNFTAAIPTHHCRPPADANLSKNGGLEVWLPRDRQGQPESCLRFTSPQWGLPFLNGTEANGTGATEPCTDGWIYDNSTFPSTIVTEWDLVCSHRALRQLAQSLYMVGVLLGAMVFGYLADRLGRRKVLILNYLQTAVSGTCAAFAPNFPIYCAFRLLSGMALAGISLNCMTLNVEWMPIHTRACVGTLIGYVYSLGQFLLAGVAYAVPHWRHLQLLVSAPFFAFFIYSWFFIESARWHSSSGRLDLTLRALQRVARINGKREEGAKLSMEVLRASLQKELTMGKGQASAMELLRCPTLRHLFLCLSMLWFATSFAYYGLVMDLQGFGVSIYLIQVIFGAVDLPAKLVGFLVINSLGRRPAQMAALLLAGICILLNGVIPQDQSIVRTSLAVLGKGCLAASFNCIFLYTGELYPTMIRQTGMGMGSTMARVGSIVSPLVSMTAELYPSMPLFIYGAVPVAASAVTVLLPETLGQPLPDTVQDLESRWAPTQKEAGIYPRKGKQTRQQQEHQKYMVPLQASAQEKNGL
# assay.info: in vitro
# condition.details: human, pH 7.4
endpoint: inhibition at 2 min, 0.3 µM (%)
Please state the figure in %; there is no need to write the unit.

GET /values?readout=inhibition at 2 min, 0.3 µM&item= C[C@H](Nc1ncnc(N)c1C#N)c1cc2ncc(Cl)n2nc1-c1ccccc1 [Amdizalisib]
3.65

----------
# assay.info: Single-dose PK in ICR mice (IV/PO)
# condition.details: male, ICR, mouse, in vivo, iv, 2.5 mg/kg
endpoint: half-life (min)
// return numeric value only (unit: min, not printed)

So what's the measured half-life for this one? `C[C@H](Nc1ncnc(N)c1C#N)c1cc2ncc(Cl)n2nc1-c1ccccc1`
124

----------
# assay.info: Single-dose PK in SD rats (IV/PO)
# Design: species or system SD rat
# condition.details: both sexes, SD, rat, in vivo, po, 5 mg/kg
endpoint: AUC(0-inf) (ng·h/mL)
# output: bare number, implied unit ng·h/mL

AUC(0-inf) for C[C@H](Nc1ncnc(N)c1C#N)c1cc2ncc(Cl)n2nc1-c1ccccc1 [Amdizalisib] ?
6130

----------
# Tested on: CYP1A2 mRNA
# assay.info: in vitro
# condition.details: female, human, EC50, CYP1A2 expression
endpoint: EC50 at 48 h (µM)
Response body: numeric value in µM, unit text excluded.

Give the measured EC50 at 48 h of C[C@H](Nc1ncnc(N)c1C#N)c1cc2ncc(Cl)n2nc1-c1ccccc1 [Amdizalisib] .
9.57

----------
# measurement.target: P-gp (Homo sapiens, UniProt P08183)
# Sequence (P08183 whole entry): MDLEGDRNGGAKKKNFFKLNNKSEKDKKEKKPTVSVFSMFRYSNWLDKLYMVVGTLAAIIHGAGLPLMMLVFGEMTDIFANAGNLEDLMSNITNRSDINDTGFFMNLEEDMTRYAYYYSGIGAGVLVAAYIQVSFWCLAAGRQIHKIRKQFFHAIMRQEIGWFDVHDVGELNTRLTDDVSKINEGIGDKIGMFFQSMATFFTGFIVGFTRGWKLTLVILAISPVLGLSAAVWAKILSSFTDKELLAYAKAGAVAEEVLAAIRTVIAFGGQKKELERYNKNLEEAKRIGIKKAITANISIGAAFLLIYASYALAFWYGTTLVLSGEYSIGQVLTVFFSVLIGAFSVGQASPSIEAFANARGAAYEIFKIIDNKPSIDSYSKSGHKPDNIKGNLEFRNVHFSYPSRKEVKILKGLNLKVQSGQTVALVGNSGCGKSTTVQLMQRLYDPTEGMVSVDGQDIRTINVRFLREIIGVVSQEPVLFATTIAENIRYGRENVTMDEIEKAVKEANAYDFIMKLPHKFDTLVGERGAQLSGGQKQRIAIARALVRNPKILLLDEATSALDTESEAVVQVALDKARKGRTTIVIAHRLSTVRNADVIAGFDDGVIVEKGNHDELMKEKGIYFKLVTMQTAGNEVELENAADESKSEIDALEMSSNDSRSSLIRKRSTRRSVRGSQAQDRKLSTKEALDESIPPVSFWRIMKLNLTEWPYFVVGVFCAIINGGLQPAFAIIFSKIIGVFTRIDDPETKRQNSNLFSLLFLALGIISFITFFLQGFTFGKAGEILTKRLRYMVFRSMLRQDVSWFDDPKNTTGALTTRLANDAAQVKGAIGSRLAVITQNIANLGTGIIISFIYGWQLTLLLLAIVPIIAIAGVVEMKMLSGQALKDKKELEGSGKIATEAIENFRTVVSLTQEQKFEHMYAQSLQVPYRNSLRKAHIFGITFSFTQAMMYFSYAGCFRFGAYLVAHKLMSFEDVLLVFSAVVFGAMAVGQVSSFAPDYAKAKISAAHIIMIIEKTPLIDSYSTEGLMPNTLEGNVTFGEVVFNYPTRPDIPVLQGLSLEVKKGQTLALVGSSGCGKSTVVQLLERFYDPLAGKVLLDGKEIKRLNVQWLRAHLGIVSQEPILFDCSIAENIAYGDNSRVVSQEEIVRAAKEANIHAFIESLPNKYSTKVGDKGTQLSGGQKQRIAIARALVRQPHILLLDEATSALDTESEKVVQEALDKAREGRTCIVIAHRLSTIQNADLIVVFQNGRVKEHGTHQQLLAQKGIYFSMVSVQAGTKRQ
# assay.info: in vitro
# condition.details: human
endpoint: inhibition at 60 min, 80 µM
In your response, put the unit directly after the numeric value.

# get_value(readout='inhibition at 60 min, 80 µM', item= `C[C@H](Nc1ncnc(N)c1C#N)c1cc2ncc(Cl)n2nc1-c1ccccc1` )
83.6%

----------
# assay.info: Metabolic stability in human liver microsomes
# Type: in vitro ADME
# condition.details: female, human, microsomes, pH 7.4, Predicted CL int, iv vivo
endpoint: CLint scaled at 1 µM (mL/min/kg)
# number only, unit mL/min/kg dropped from output

Item `C[C@H](Nc1ncnc(N)c1C#N)c1cc2ncc(Cl)n2nc1-c1ccccc1` has what recorded CLint scaled at 1 µM?
5.78

----------
# Tested on: CYP2C9
# assay.info: in vitro
# condition.details: female, human, Enzyme activity Fold Induction
endpoint: fold induction at 48 h, 25 µM

Reported fold induction at 48 h, 25 µM, molecule `CCOC(=O)c1ncn2c1CN(C)C(=O)c1cc(F)ccc1-2` : ____
1.11

----------
# measurement.target: BCRP (Homo sapiens, UniProt Q9UNQ0)
# assay.info: in vitro
# condition.details: human
endpoint: inhibition at 60 min, 0.1 µM (%)
Numeric only. Scale: %

Fill in the blank: the reported inhibition at 60 min, 0.1 µM of `C[C@H](Nc1ncnc(N)c1C#N)c1cc2ncc(Cl)n2nc1-c1ccccc1` is ____.
28.5

----------
Protein target, amino acids: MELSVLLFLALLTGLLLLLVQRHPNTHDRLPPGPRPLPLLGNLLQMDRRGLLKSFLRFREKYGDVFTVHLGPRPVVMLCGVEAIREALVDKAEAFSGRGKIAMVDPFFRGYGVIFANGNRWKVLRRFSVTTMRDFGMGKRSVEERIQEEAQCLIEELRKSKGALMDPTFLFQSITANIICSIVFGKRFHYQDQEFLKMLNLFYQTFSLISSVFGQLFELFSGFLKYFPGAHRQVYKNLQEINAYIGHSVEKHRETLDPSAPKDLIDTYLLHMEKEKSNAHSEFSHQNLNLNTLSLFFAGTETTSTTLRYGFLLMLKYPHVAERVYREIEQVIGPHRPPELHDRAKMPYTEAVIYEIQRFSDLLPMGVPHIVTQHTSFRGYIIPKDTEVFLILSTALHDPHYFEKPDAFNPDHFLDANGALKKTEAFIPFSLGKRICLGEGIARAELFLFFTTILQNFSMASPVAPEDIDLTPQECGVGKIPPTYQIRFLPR
endpoint: IC50

Requested field: IC50. Item: `C[C@H](Nc1ncnc(N)c1C#N)c1cc2ncc(Cl)n2nc1-c1ccccc1`
> 50 µM

----------
# assay.info: Single-dose PK in SD rats (IV/PO)
# Design: species or system SD rat
# condition.details: both sexes, SD, rat, in vivo, po, 25 mg/kg
endpoint: MRT

GET /values?readout=MRT&item= C[C@H](Nc1ncnc(N)c1C#N)c1cc2ncc(Cl)n2nc1-c1ccccc1 [Amdizalisib]
11 h

----------
# assay.info: Single-dose PK in SD rats (IV/PO)
# Set-up: species or system SD rat
# condition.details: both sexes, in vivo; SD rat, fasted, PO 25 mg/kg; read-out: Tmax
endpoint: Tmax (h)
Use h as the unit, but write only the number.

Form field: reported Tmax of C[C@H](Nc1ncnc(N)c1C#N)c1cc2ncc(Cl)n2nc1-c1ccccc1 [Amdizalisib]
4.17

----------
# assay.info: Metabolic stability in monkey liver microsomes
# Type: in vitro ADME
# condition.details: pH 7.4; female monkey liver microsomes, FMO deactivation; read-out: in vitro t1/2
endpoint: half-life at 1 µM (h)
Report the value in h with no unit label.

Looking for the measured half-life at 1 µM of `C[C@H](Nc1ncnc(N)c1C#N)c1cc2ncc(Cl)n2nc1-c1ccccc1` , can you help?
1.72

----------
# assay.info: Single-dose PK in SD rats (IV/PO)
# Design: species or system SD rat
# condition.details: both sexes, SD, rat, in vivo, po, 25 mg/kg
endpoint: AUC(0-t) (ng·h/mL)
Return type: number; implicit unit ng·h/mL.

Name the reported AUC(0-t) value associated with the compound `C[C@H](Nc1ncnc(N)c1C#N)c1cc2ncc(Cl)n2nc1-c1ccccc1`
52400

----------
# measurement.target: OAT3 (Homo sapiens, UniProt Q8TCC7)
# Sequence (Q8TCC7 1-542): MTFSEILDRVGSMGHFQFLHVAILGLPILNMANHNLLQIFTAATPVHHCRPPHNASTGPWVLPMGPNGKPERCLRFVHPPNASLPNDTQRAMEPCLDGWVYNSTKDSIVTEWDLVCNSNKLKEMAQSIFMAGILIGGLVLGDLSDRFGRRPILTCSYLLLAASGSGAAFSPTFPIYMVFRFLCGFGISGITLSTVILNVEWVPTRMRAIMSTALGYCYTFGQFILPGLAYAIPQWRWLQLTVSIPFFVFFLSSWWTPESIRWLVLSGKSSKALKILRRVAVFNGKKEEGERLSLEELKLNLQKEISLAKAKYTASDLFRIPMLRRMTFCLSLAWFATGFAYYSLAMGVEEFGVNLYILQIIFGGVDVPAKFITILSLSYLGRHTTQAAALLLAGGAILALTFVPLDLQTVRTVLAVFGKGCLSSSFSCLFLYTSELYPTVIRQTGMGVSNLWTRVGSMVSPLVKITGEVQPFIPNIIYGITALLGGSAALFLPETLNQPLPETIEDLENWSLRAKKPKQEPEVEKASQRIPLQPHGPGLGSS
# assay.info: in vitro
# condition.details: human, pH 7.4
endpoint: inhibition at 2 min, 3 µM
Report field: quantity (unit follows the number).

Bench note: what inhibition at 2 min, 3 µM did `C[C@H](Nc1ncnc(N)c1C#N)c1cc2ncc(Cl)n2nc1-c1ccccc1` show?
2.54%

Reference source for all entries: paper PMC11211886
